# Test system: Fusobacterium nucleatum subsp. polymorphum
# experiment-summary: MIC against oral microorganisms via broth dilution
# Type: cell-based
# assay-setup: ATCC10953, broth dilution 0.94-15 ppm, 7-10 days at 37° C. anaerobically, ATCC 10953, read-out: MIC Fusobacterium nucleatum subsp. polymorphum
Measured MIC, listed per entry.
Form entry: value (µg/mL) — number only.

Consider the reported MIC for these molecules:
CN(C)CCSc1ccccc1/C=C/c1ccc(/C=C/c2ccccc2SCCN(C)C)cc1 [formula 23] :: 7.5
Cc1ccc(/C=C/c2ccc(/C=C/c3ccc(C)c(OCCCN(C)C)c3)cc2)cc1OCCCN(C)C [formula 30] :: 3.8
CN(C)CCCOc1ccccc1/C=C/c1ccc(/C=C/c2ccccc2OCCCN(C)C)cc1 [formula 26] :: 3.8
COc1cccc(/C=C/c2ccc(/C=C/c3cccc(OC)c3OCCCN(C)C)cc2)c1OCCCN(C)C [formula 27] :: 7.5
CCN(CC)CCOc1ccccc1/C=C/c1ccc(/C=C/c2ccccc2OCCN(CC)CC)cc1 [formula 24] :: 15

Q: Entry Cc1ccc(/C=C/c2ccc(/C=C/c3cccc(OCCCN(C)C)c3)cc2)c(OCCN(C)C)c1 [formula 29] has what MIC?
A: 3.8
